- TARGET_OF_ASSAY: human cholecystokinin-1 receptor (CCK-1R) (Homo sapiens, UniProt P32238)
- Construct: host or cells: 1321-N1 cells
- Sequence (P32238 whole entry): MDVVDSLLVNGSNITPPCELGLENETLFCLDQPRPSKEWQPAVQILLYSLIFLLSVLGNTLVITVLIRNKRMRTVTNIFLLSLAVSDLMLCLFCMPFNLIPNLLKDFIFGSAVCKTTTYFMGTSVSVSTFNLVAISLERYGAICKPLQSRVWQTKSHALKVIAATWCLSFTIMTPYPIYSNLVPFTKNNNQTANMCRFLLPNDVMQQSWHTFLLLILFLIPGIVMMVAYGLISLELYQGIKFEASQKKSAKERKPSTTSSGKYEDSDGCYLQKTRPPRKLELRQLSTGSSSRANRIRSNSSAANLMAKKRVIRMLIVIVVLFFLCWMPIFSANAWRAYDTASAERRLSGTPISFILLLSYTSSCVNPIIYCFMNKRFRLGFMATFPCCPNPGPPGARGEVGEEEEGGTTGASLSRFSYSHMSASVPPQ
- ASSAY_OVERVIEW: In vitro receptor binding to CCK-1R, SPA displacement of [125I]-CCK-8s from plasma membranes
- CONDITION_LABEL: displacement of [125I]-CCK-8s, plasma membranes of 1321-N1 cells expressing CCK-1R; read-out: IC50 (CCK-1R)
Starred links: 1 amine or outer side, 2 acyl side, 3 side chain; linkers in the order of their positions; H or OH if unused. Non-standard residues stand in square brackets, D forms with d. Residues, ends and D or L forms follow the SMILES beside them. Phe(4-CH2SO3H) = N[C@@H](Cc1ccc(CS(=O)(=O)O)cc1)C(=O)O; sY = N[C@@H](Cc1ccc(OS(=O)(=O)O)cc1)C(=O)O; βAsp = O=C(O)[C@H](CC(=O)[*:2])N[*:1]; NMeF = CN[C@@H](Cc1ccccc1)C(=O)O; dNMeD = CN[C@H](CC(=O)O)C(=O)O; Nle = CCCC[C@H](N)C(=O)O
Catalogue of IC50 readings, one per entry.

| COMPOUND | IC50 (nM) |
| --- | --- |
| CCCC[C@H](NC(=O)[C@H](Cc1c[nH]c2ccccc12)NC(=O)CNC(=O)[C@H](CC(C)C)NC(=O)[C@H](Cc1ccc(OS(=O)(=O)O)cc1)NC(=O)[C@@H](N)CCC(=O)O)C(=O)N(C)[C@H](CC(=O)O)C(=O)N[C@@H](Cc1ccccc1)C(N)=O [Example 90] (H-E[sY]LGW[Nle][dNMeD]F-NH2) | 0.029 |
| CCCC[C@H](NC(=O)[C@H](Cc1ccc(CS(=O)(=O)O)cc1)NC(=O)C[C@H](N)C(=O)O)C(=O)NCC(=O)N[C@@H](Cc1c[nH]c2ccccc12)C(=O)N[C@@H](CCCC)C(=O)N(C)[C@H](CC(=O)O)C(=O)N(C)[C@@H](Cc1ccccc1)C(N)=O [Example 75] (βAsp-[Phe(4-CH2SO3H)][Nle]GW[Nle][dNMeD][NMeF]-NH2) | 0.049 |
